test_description: NCI Yeast Anticancer Drug Screen. Data for the sgs1 mgt1 strain (AID 161);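 further: 0% = growth of cultures given vehicle only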
condition_summary: S. cerevisiae sgs1 mgt1 strain, at 50.0 µM, stronger effect = higher value
This is part of a sample that, as a whole, favours compounds with a hit. Of some 79,000 tested, about 15% had one in any assay. The source made the active and inactive calls. No stated cut-off is given here; in the data, active means growth inhibition above about 70%; inactive means the rest.
measurement_name: growth inhibition

Query: Read the entry `CCN(CC)C(=O)c1ccccc1` and write its reported growth inhibition.
Response: -10.3% (inactive)

Query: Identify growth inhibition associated with the compound N#CC1C2CCC(C2)C1CCCN (stereo not given)
Response: 6.55% (inactive)

Query: Hello, please tell me recorded growth inhibition for this one: `O=C(NCCCCCCNC(=O)NCc1ccco1)NCc1ccco1`
Response: -28.1% (inactive)

Query: Give the value of growth inhibition reported for the following: `CCOC(=O)c1nc(C)oc1C(=O)OCC`
Response: -14.6% (inactive)

Query: Look up and report measured growth inhibition for this entry: `C[N+](C)(C)CCCCCC[N+](C)(C)C`
Response: -22.9% (inactive)

Query: # return recorded growth inhibition for entry CC(CCC(=O)O)C1CCC2C3CCC4CCCCC4(C)C3CCC12C (stereo not given)
Response: 43.3% (inactive)

Query: Report growth inhibition for `O=C1NC(=O)c2ccccc2/C1=C/c1ccc2c(c1)OCO2`
Response: -13.3% (inactive)

Query: Give growth inhibition for `COc1ccc2nccc(N)c2c1`
Response: 15.1% (inactive)

Query: Tell me measured growth inhibition for O=C(O)C1CC=CCC1C(=O)Nc1cccc(O)c1 (stereo not given) please.
Response: -51.7% (inactive)

Query: Retrieve growth inhibition measured for `NC(=O)c1cc2ccccc2c2ccccc12` and print it.
Response: -15.6% (inactive)

* * *

test_description: NCI Yeast Anticancer Drug Screen. Data for the sgs1 mgt1 strain (AID 161);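 further: 0% = growth of cultures given vehicle only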
condition_summary: S. cerevisiae sgs1 mgt1 strain, at 50.0 µM
This is part of a sample that, as a whole, favours compounds with a hit. Of some 79,000 tested, about 15% had one in any assay. Activity calls are given as the source filed them. Rule as the data show it: active = growth inhibition above about 70%; inactive = the rest.
I would appreciate it if you answered using one of these outcomes: true for active, false for inactive

Record excerpt, results attached:
Query: Dear all, I need the recorded test outcome for CCCCC(C(C)=O)C(=O)CC (centres undefined) , thank you.
Response: false

Query: For this compound, state the assay outcome: `Cc1ccc(NC(=O)OCCOc2c(C(C)C)cccc2C(C)C)c([N+](=O)[O-])c1`
Response: false

Query: Hi, do you know how Nc1nc2ncc(CCCNc3ccc(C(=O)NC(CCC(=O)O)C(=O)O)cc3)nc2c(=O)[nH]1 (centres undefined) came out in this test?
Response: false

Query: Identify the outcome logged in this assay for the compound shown: `COc1ccc(OC)c(Cc2ccc(NC(C)=O)cc2)c1`
Response: false

Query: Write down the call the test reported for this compound. Item: `O=C(NCCNCCNC(=O)C(F)(F)F)C(F)(F)F`
Response: false

More entries:
Query: Could you check what this test reported for `c1ccc2cc3ccccc3cc2c1` ?
Response: false

Query: Write down the call the test reported for this compound. Item: `C=CCc1ccc(OC(=O)Nc2ccc(S(=O)(=O)N(C)C)cc2)c(OC)c1`
Response: false

Query: What is the recorded call for this compound in the test? `CCC1=NC(C(F)(F)F)(C(F)(F)F)N=C(N2CCOCC2)O1`
Response: false

Query: Field: outcome | Entry: `CC1=CC(=O)C(C(C)C)=CC1=Nc1ccc(N(C)C)cc1`
Response: false

Query: Dear all, I need the recorded test outcome for `Cc1csc2nc3[nH]ncc3c(=O)n12` , thank you.
Response: false

Query: Could you check what this test reported for CCC1(C)CC(C)(C)c2ccc(C)cc21 (centres undefined) ?
Response: false

Query: Write down the call the test reported for this compound. Item: `COc1ccc2c(N=[N+]=[N-])c(-c3ccccc3)c(=O)oc2c1`
Response: false

Query: How was O=C(CN1CCCC1)Nc1ccc2c(c1)C1Oc3ccccc3CC1CO2 (centres undefined) classified in this test?
Response: false

Query: Fill in: this test's call for `C[C@@H](O)CO` is ___
Response: false

Query: Record lookup: outcome of this test for `Nc1nnnn1C1CCCCC1` ?
Response: false

Query: Hey, what did the test say about `COc1cccc(C(=O)NNC(=O)c2cccc(OC)c2)c1` ?
Response: false

Query: Lab log entry: `N#C/C(=N\Nc1ccc(F)cc1)C(=O)C1CC1` — outcome as called in the assay?
Response: false

Query: Can you look up the reported call for N#CSC1CCCCC1SC#N (centres undefined) for me?
Response: false

Query: Call for entry `CSCCCNC(=O)c1csc(-c2csc(CCNC(=O)[C@@H](NSc3ccccc3[N+](=O)[O-])[C@@H](C)O)n2)n1` :
Response: false

Query: Dear colleague, could you share the recorded outcome for `O=C(CCc1ccc(O)cc1)c1c(O)cc(O)cc1O` when you have a moment?
Response: false

Query: Outcome? `CN(C)c1ccc(N=O)c(O)c1`
Response: false

Query: Please state the recorded outcome for this compound: CC(=O)C1(SCCO)CCC2C3CCC4=CC(=O)CCC4(C)C3CCC21C (centres undefined)
Response: true

* * *

test_description: NCI Yeast Anticancer Drug Screen. Data for the mlh1 rad18 strain (AID 175)
condition_summary: S. cerevisiae mlh1 rad18 strain growth inhibition; at 50.0 µM; stronger effect = higher value
This is part of a sample that, as a whole, favours compounds with a hit. Of some 79,000 tested, about 15% had one in any assay.
Reported growth inhibition values are given for each entry in this list.
Give the value in % but do not write % after it.

Use the examples below as a reference point.
Query: Give recorded growth inhibition. `Cc1cccc(/C=N/NC(=S)N2CCCCCC2)n1`
Response: 89

Query: Please report growth inhibition for the following molecule: CCCCCCCC(=O)OCC1OC(n2cc(F)c(=O)[nH]c2=O)C(NC(=O)OCc2ccccc2)C(O)C1O (centres undefined)
Response: -17.6

Query: Answer with the recorded growth inhibition for the molecule listed here: `Cc1cc(OCCBr)ccc1[N+](=O)[O-]`
Response: 0.45

Query: Quickly give me recorded growth inhibition for `CNc1ccc(C(=O)O)cc1C(F)(F)F`
Response: 8.85

Next:
Query: Name the recorded growth inhibition of the molecule listed here: `CC(=O)Oc1ccc2c(c1)oc1c3ccc(OC(C)=O)cc3n(C)c(=O)c21`
Response: -23.4

Query: Specify reported growth inhibition for the molecule shown: `C/C=C\CCCCCCCCCCCCCCCC`
Response: 16.8

Query: State its growth inhibition: CC1=C(CCC(C)CO)O[C@H]2C[C@H]3[C@@H]4CC[C@H]5C[C@@H](O)CC[C@]5(C)[C@H]4CC(=O)[C@]3(C)[C@@H]12 (some centres undefined)
Response: 70.8

Query: Return value of growth inhibition for input CC1(C)OC2CC(=O)OCC23C1CC(=O)C1(C)C3CCC2(C)C(c3ccoc3)OC(=O)C3OC321 (centres undefined) , no commentary.
Response: 18.5

Query: Return growth inhibition (reported value) for this molecule: `c1ccc(Nc2cc(Nc3ccccc3)ncn2)cc1`
Response: 2.35

* * *

test_description: NCI Yeast Anticancer Drug Screen. Data for the rad50 strain (AID 155);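 further: 0% = growth of vehicle-only cultures of the same strain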
condition_summary: S. cerevisiae rad50 strain growth inhibition; at 50.0 µM; stronger effect = higher value
This is part of a sample that, as a whole, favours compounds with a hit. Of some 79,000 tested, about 15% had one in any assay. The source made the active and inactive calls. Cut-off read from the data, not from the text of the source: active = growth inhibition above about 70%; inactive = the rest.
measurement_name: growth inhibition

Look over these answered cases.
Query: Item `CCOC(=O)/C(C)=C(/C)Nc1ccccc1` : provide growth inhibition
Response: 1.45% (inactive)

Query: For the compound `CC1=C(c2cc(C(=O)Nc3ccc(Cl)cc3)nc(=S)[nH]2)Sc2ccccc2N1` , give its measured growth inhibition value.
Response: -30.9% (inactive)

Query: Provide one value: measured growth inhibition of `O=[N+]([O-])c1cccc(C=NC23CC4CC(CC(C4)C2)C3)c1`
Response: -2.15% (inactive)

Then there is this compound:
Query: Report growth inhibition, nothing else, for this compound: `COC(=O)c1ccc(C(=O)OC)cc1`
Response: -12.2% (inactive)

* * *

test_description: NCI Yeast Anticancer Drug Screen. Data for the rad50 strain (AID 155);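 further: 0% = growth of vehicle-only cultures of the same strain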
condition_summary: S. cerevisiae rad50 strain growth inhibition; at 50.0 µM; stronger effect = higher value
Compounds without any hit were thinned out: in the full panel of roughly 79,000, 15% have a hit.
measurement_name: growth inhibition (%)
Please respond with the number in % and leave the unit unwritten.

Some compounds with recorded growth inhibition:
Query: Report measured growth inhibition; entry is O=C1OC(=O)C2C1C1C=CC2C1(c1ccccc1)c1ccccc1 (stereo not given)
Response: 9.05

Query: Indicate the recorded growth inhibition value for this compound: `Cc1cc(/C=N/NC(=O)c2ccccc2NC(=O)c2ccccc2Cl)ccc1O`
Response: 20.6

Others:
Query: Hello, please tell me recorded growth inhibition for this one: `COc1cc2cccnc2c2[nH]c(=O)c3c(c12)CCC3`
Response: 13.9

Query: Consider the compound `CC(C)(C)c1ccc(OCCCCl)c(CCl)c1` and give its recorded growth inhibition.
Response: 23.4

Query: Give the reported value of growth inhibition for this record: `CSC1=Nc2cccnc2Nc2cscc21`
Response: -9.25

Query: Return value of growth inhibition for input COc1ccc(CCN2C(CC(=O)c3ccccc3)CCCC2CC(=O)c2ccccc2)cc1OC (stereo not given) , no commentary.
Response: -8.05

Query: Note down growth inhibition recorded for O=C1OC(c2ccccc2)(C2(c3ccccc3)C=C(c3ccccc3)C(=O)O2)C=C1c1ccccc1 (stereo not given)
Response: 39.2

Query: Tell me measured growth inhibition for CCC(=O)OCCCC1CCCO1 (stereo not given) please.
Response: 7.85

Query: Report growth inhibition, nothing else, for this compound: CC(=O)c1cccc(NC(=O)C(=O)C(C(=O)c2ccccc2F)C2OC(=O)c3ccccc32)c1 (stereo not given)
Response: 9.2

Query: Give recorded growth inhibition. `O=S1(=O)CC(c2ccccc2)(c2ccccc2)Nc2ccccc21`
Response: -6.55
